# Protocol Description: Cytotoxicity against human KB cells after 72 hrs
# Format: cell-based
# Test Conditions: read-out: ED50
Reported CC50 at 72 h by item:

>  <Compound>
COc1cc([C@H]2O[C@@H](c3cc(OC)c(OC)c(OC)c3)[C@H](C)[C@H]2C)cc(OC)c1OC [EPIGRANDISIN]

>  <Qualifier>
=

>  <CC50 at 72 h [µg/mL]>
16

$$$$
>  <Compound>
C=CCc1cc(OC)c(O[C@H](C)[C@@H](O)c2cc(OC)c(OC)c(OC)c2)c(OC)c1

>  <Qualifier>
=

>  <CC50 at 72 h [µg/mL]>
10

$$$$
>  <Compound>
C[C@@H]1CC[C@H]2[C@@H](C)C(=O)O[C@@H]3O[C@@]4(C)CC[C@@H]1[C@]32OO4

>  <Qualifier>
>

>  <CC50 at 72 h [µg/mL]>
20

$$$$
>  <Compound>
C=C[C@H]1CN2CC[C@H]1C[C@H]2[C@H](O)c1ccnc2ccc(OC)cc12

>  <Qualifier>
>

>  <CC50 at 72 h [µg/mL]>
20

$$$$
>  <Compound>
COc1cc(O)cc2c1C(=O)OOC(C)CCCCC/C=C/2 (configuration not stated)

>  <Qualifier>
=

>  <CC50 at 72 h [µg/mL]>
4

$$$$
>  <Compound>
COc1cc([C@@H]2O[C@@H](c3cc(OC)c(OC)c(OC)c3)[C@H](C)[C@H]2C)cc(OC)c1OC

>  <Qualifier>
=

>  <CC50 at 72 h [µg/mL]>
14

$$$$
>  <Compound>
C/C=C/c1cc(OC)c(O[C@H](C)[C@@H](O)c2cc(OC)c(OC)c(OC)c2)c(OC)c1 (relative stereo)

>  <Qualifier>
=

>  <CC50 at 72 h [µg/mL]>
2

$$$$
